target: T1, human PD-1 (soluble PD-1 protein, R&D Systems) (human, UniProt Q15116 25-170, limits assumed); experiment: BLI (ForteBio), mAb on AHC biosensor, PD-1 as analyte
T1 construct: the kinetics paragraphs say only 'PD-1' / 'antigen'; also called hPD-1; soluble PD-1 immunogen
T1 sequence (Q15116 25-170 limits assumed): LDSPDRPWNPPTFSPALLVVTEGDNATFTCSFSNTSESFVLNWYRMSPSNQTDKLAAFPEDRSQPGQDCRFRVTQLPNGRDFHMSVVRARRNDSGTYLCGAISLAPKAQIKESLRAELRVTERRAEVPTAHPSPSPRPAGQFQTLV
quantity_measured: koff

{"binder": "A25 (antibody, V domains shown, Tested as full-length mAb expressed in CHO cells; also called antibody 25; L25H25) VH: QVQLVESGGGVVQPGRSLRLSCAASGFTFSSYGMHWVRQAPGKGLEWVGVIWYDGSIKYYADSVKGRFTISRDNSMNTLNLQMNSLRAEDTAVYYCAGDILTGSFDYWGQGTLVTVSS VL: EIVLTQSPATLSLSPGERATLSCRASQSVSSYLAWYQQKPGQAPRLLIYDASNRATGIPARFSGSGSGTDFTLTISSLEPEDFAVYYCQQRNNWPYTFGQGTKLEIK", "quantity_measured": "koff", "result": "0.0579 s⁻¹"}
{"binder": "A28 (antibody, V domains shown, Tested as full-length mAb expressed in CHO cells; also called antibody 28; L28H28) VH: QVQLVESGGGLVKPGGSLKLSCAASGFTFSDYGMHWVRQAPEKGLEWVAYISSGSFAIYYADTVRGRFTISRDSAKNTLFLQMTSLRSEDTAMYYCARRGPYPYYYSMDYWGQGTSVTVSS VL: AIQMTQSPSSLSASVGDRVTITCRASQGISSALAWYQQKPGKAPKLLIYAASTLQSGVPSRFSGSGSGTDFTLTISSLQPEDFATYYCLQDYNYPWTFGQGTKVEIK", "quantity_measured": "koff", "result": "0.00418 s⁻¹"}
{"binder": "A19 (antibody, V domains shown, Tested as full-length mAb expressed in CHO cells; also called antibody 19; L19H19) VH: QVQLVESGGGVVQPGRSLRLSCAASGFTFSNYGMYWVRQAPGKGLEWVAVIWYDGSNKYYADSVKGRFTISRDNSKNTLYLQMNSLRAEDTAVYYCAGGGDILTGDYWGQGTLVTVSS VL: DIQMTQSPSSLSASVGDRVTITCRASQGIRNDLGWYQQKPGKAPKRLIYAASSLQSGVPSRFSGSGSGTEFTLTISSLQPEDFATYYCLQYKSYLYTFGQGTKLEIK", "quantity_measured": "koff", "result": "0.00107 s⁻¹"}
{"binder": "A16 (antibody, V domains shown, Tested as full-length mAb expressed in CHO cells; also called antibody 16; L16H16) VH: QVQLVESGGGVVQPGRSLTLSCAASGFTFSNYGMYWVRQAPGKGLEWVAVIWYDGSNKYYADSVKGRFTISRDNSKNTLYLQMNSLRAEDTAVYYCAGGGSYSGDYWGQGTLVTVSS VL: DIQMTQSPSSLSASVGDRVTITCRTSQDIRNDLGWYQQKPGKAPKRLIYAVSSLQSGVPSRFSGSGSGTEFTFTISSLQPEDFATYYCLQYNTYPFTFGPGTTVDIK", "quantity_measured": "koff", "result": "0.00655 s⁻¹"}
